Values from paper PMC6442474

# tested_on: tau (2N4R) (Homo sapiens, UniProt P10636)
# Sequence (P10636 1-441 isoform P10636-8): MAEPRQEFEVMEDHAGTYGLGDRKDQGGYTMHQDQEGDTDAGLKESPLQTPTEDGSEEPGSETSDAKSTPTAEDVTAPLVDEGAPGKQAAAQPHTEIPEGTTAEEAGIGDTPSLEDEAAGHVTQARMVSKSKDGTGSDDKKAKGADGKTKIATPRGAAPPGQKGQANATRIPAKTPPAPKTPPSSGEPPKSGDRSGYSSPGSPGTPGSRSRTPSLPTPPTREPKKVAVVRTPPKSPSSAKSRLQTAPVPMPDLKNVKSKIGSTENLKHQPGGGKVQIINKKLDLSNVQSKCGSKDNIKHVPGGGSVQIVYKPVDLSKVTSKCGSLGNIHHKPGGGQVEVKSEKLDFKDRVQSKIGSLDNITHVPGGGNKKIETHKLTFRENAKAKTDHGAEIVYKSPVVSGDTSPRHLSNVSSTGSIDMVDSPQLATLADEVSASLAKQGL
# experimental_details: arachidonic acid-induced tau aggregation, filter trap assay dose-response
# Type: biochemical
pIC50: −log10 of the molar value.
quantity: pIC50

[A] O=C1c2c(cc(CO)c(O)c2O)C(=O)c2c(O)c(O)cc(O)c21
[B] O=C1c2cc(CO)cc(O)c2C(=O)c2c1cc(O)c(O)c2O [2,ω-dihydroxyemodin]
Identify the entry with the larger pIC50. Options: A and B To answer, give the label that identifies your chosen option.
A
